Assay Target: S-adenosylmethionine decarboxylase proenzyme (Homo sapiens, UniProt P17707)
Sequence (P17707 1-67 limits assumed): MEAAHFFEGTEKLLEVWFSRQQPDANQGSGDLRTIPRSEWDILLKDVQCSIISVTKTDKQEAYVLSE
Sequence (P17707 68-334 limits assumed): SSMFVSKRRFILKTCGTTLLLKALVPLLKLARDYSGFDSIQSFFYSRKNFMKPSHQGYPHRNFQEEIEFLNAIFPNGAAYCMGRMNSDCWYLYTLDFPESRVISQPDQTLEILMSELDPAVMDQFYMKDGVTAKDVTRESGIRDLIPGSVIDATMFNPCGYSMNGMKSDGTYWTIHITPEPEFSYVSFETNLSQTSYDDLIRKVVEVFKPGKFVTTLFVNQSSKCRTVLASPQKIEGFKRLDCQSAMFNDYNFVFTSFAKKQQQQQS
Readout Label: IC50 (µM)
Give bare numbers, in µM.

What the record says about C[S+](C)C[C@H]1O[C@@H](n2cnc3c(N)ncnc32)[C@H](O)[C@@H]1O : IC50 is 15
